Data origin: the OPERA property sets (Mansouri et al. 2018)

Conditions: 26 °C
The label depends only on solubility: T if it is at least 30 mM, F if it is smaller.

Solved cases below.
| compound | group-label |
| --- | --- |
| N#CCCN(CCC#N)[C@@H](CCC(=O)O)C(=O)O | T |
| O=C(S)CCCCCCC(=O)S | F |
| CSC1=CC(=O)c2ccccc2C1=O | F |
| N#CCCNC(Cc1ccccc1)C(=O)O (racemic) | T |
| CC(C=NO)=NO | T |

QUERY: # bool: solubility of C=CCc1ccc(O)c(O)c1 >= 30 mM
RESULT: T

QUERY: # bool: solubility of N#CCCNC(CCC(=O)O)C(=O)O (configuration not stated) >= 30 mM
RESULT: T

QUERY: # bool: solubility of Cc1ccc(C)c(C)n1 >= 30 mM
RESULT: T
